- Tested on: NCI-H460 R9A tumour cells (H460/(R9A), resistant to carboxylic acid-bearing compounds)
- experiment_summary: Sulphorodamine B cytotoxicity test on ST1926-resistant NCI-H460 R9A cells
- Format: cell-based
- assay_context: Homo sapiens; Table 3; resistant NCI-H460 R9A; SRB; read-out: IC50 ± SD, NCI-H460 R9A
quantity_kind: pIC50
# log scale: pIC50 equals minus log10 of the concentration in mol/L

INSERT INTO assay_data (compound, numeric_value) VALUES
  ('O=C(/C=C/c1ccc(-c2ccc(O)c(C34CC5CC(CC(C5)C3)C4)c2)c(Cl)c1)NO [ST3088]', 5.12),
  ('O=C(C=Cc1ccc(-c2cc3c(c(C45CC6CC(CC(C6)C4)C5)c2)OCCO3)cc1)NO [ST3081]', 5.86),
  ('COc1ccc(-c2ccc(/C=C/C(=O)NO)cc2)cc1C12CC3CC(CC(C3)C1)C2 [ST3056]', 5.92),
  ('O=C(O)c1ccc2cc(-c3ccc(O)c(C45CC6CC(CC(C6)C4)C5)c3)ccc2c1 [ST1964, reference compound]', 4.90),
  ('O=C(/C=C/c1ccc(-c2ccc(O)c(C34CC5CC(CC(C5)C3)C4)c2)cc1)NO [ST2992]', 5.92);

Below: the item to evaluate.
Query :: Request the reported pIC50 associated with O=C(/C=C/c1ccc(-c2ccc(O)cc2)cc1)NO [ST2782]
Result :: 5.74
